Tested on: A549
assayProcedure: Antiproliferative activity against human A549 cells after 72 hrs by MTS assay
Assay type: functional, cell-based
testParameters: A549, 72 h
pIC50: −log10 of the molar value.
// label = Fulfilled if pIC50 is not less than 5, otherwise Not fulfilled

Kindly determine if pIC50 recorded for COc1cc2c(N3CCN(C(=S)SCc4ccco4)CC3)ncnc2cc1OCCCN1CCCCC1 is above or exactly 5. Fulfilled

Hello, I need to know if CCSC(=S)N1CCN(c2ncnc3cc(OCCCN4CCCCC4)c(OC)cc23)CC1 has measured pIC50 not below 5. Thanks! Not fulfilled

// inclusive: pIC50 at least 5? input: COc1cc2c(N3CCN(C(=S)SCC4CCOCC4)CC3)ncnc2cc1OCCCN1CCCCC1 Not fulfilled

Does the molecule COc1cc2c(N3CCN(C(=S)SCC4CCCO4)CC3)ncnc2cc1OCCCN1CCCCC1 (centres undefined) have recorded pIC50 that is 5 or more? Not fulfilled

Kindly determine if pIC50 recorded for COc1cc2c(N3CCN(C(=S)SCc4ccc(F)cc4F)CC3)ncnc2cc1OCCCN1CCCCC1 is above or exactly 5. Fulfilled

Form field: pIC50 at least 5? Entry: COc1cc2c(N3CCN(C(=S)SCc4ccc(C(=O)O)cc4)CC3)ncnc2cc1OCCCN1CCCCC1 Not fulfilled

Does pIC50 meet or surpass 5 for COc1cc2c(N3CCN(C(=S)SC)CC3)ncnc2cc1OCCCN1CCCCC1 ? Not fulfilled

Does the reported pIC50 for COc1cc2c(N3CCN(C(=S)SCc4ccc([N+](=O)[O-])cc4)CC3)ncnc2cc1OCCCN1CCCCC1 fall at or above the 5 mark? Fulfilled

Determine whether measured pIC50 meets or exceeds 5 for COc1ccc(CSC(=S)N2CCN(c3ncnc4cc(OCCCN5CCCCC5)c(OC)cc34)CC2)cc1 Fulfilled

Please tell me: is the molecule COc1cc2c(N3CCN(C(=S)SCc4ccc(F)cc4)CC3)ncnc2cc1OCCCN1CCCCC1 at or over 5 in terms of pIC50? Fulfilled

Reported pIC50 at or above 5? COc1cc2c(N3CCN(C(=S)SCC4OCCO4)CC3)ncnc2cc1OCCCN1CCCCC1 Not fulfilled

Is the recorded value of pIC50 equal to or greater than 5 for this molecule? COc1cc2c(N3CCN(C(=S)SCc4ccc(Br)cc4)CC3)ncnc2cc1OCCCN1CCCCC1 Fulfilled

# check: pIC50 of COc1cc2c(N3CCN(C(=S)SCc4c(F)c(F)c(F)c(F)c4F)CC3)ncnc2cc1OCCCN1CCCCC1 is greater than or equal to 5 Fulfilled

Hello, I need to know if COc1cc2c(N3CCN(C(=S)SCc4cccnc4)CC3)ncnc2cc1OCCCN1CCCCC1 has measured pIC50 not below 5. Thanks! Not fulfilled

# check: pIC50 of COc1cc2c(N3CCN(C(=S)SCc4ccncc4)CC3)ncnc2cc1OCCCN1CCCCC1 is greater than or equal to 5 Not fulfilled

// inclusive: pIC50 at least 5? input: COc1cc2c(N3CCN(C(=S)SCc4ccc(C)cc4)CC3)ncnc2cc1OCCCN1CCCCC1 Fulfilled

###

Test system: MCF7
assayProcedure: Antiproliferative activity against human MCF7 cells after 72 hrs by MTS assay
Assay type: functional, cell-based
testParameters: MCF7, 72 h
parameter: pIC50
Reminder that pIC50 means the negative base-10 logarithm of the concentration expressed in mol/L.

Any idea what pIC50 was measured for COc1cc2c(N3CCN(C(=S)SCc4ccc(Br)cc4)CC3)ncnc2cc1OCCCN1CCCCC1 ? 5.41

Record request: pIC50 value, item CCSC(=S)N1CCN(c2ncnc3cc(OCCCN4CCCCC4)c(OC)cc23)CC1 4.78

I would be grateful if you could share the reported pIC50 for COc1cc2c(N3CCN(C(=S)SC)CC3)ncnc2cc1OCCCN1CCCCC1 . 4.56
